Values from ChEMBL document CHEMBL5724806

assay_name: The drug is tested on Streptococcus sanguinis strain: DSM20567 for biotransformation under anaerobic condition. The drug concentrations were measured over 6 timepoints collected between 0 and 12 hours of incubation by liquid-chromatography-coupled mass spectrometry (LC–MS)
Assay type: ADME
Design: dose 5 uM, timepoint 0, 1.5, 3, 6, 9, 12 hours
stated_conditions: 5 µM
reported_metric: Bacterial Biotransformation

compound | Bacterial Biotransformation
C[C@]12C=CC(=O)C=C1CC[C@@H]1[C@@H]2C(=O)C[C@@]2(C)[C@H]1CC[C@]2(O)C(=O)CO | Compound NOT metabolized
COc1c(C)c2c(c(O)c1C/C=C(\C)CCC(=O)OCCN1CCOCC1)C(=O)OC2 [MYCOPHENOLATE MOFETIL] | Compound metabolized
Cn1cnc([N+](=O)[O-])c1Sc1ncnc2nc[nH]c12 | Compound metabolized
C[C@]12C=CC(=O)C=C1CC[C@@H]1[C@@H]2[C@@H](O)C[C@@]2(C)[C@H]1CC[C@]2(O)C(=O)CO | Compound NOT metabolized

The record that follows has no Bacterial Biotransformation shown yet.
Field Bacterial Biotransformation (entry "CCC(C)(C)C(=O)O[C@H]1C[C@@H](C)C=C2C=C[C@H](C)[C@H](CC[C@@H]3C[C@@H](O)CC(=O)O3)[C@H]21" ) reads Compound NOT metabolized

###

assay_name: The drug is tested on Bacteroides uniformis strain: DSM6597 for biotransformation under anaerobic condition. The drug concentrations were measured over 6 timepoints collected between 0 and 12 hours of incubation by liquid-chromatography-coupled mass spectrometry (LC–MS)
Assay type: ADME
Parameters: dose 5 uM, timepoint 0, 1.5, 3, 6, 9, 12 hours
stated_conditions: 5 µM
reported_metric: Bacterial Biotransformation

// worked examples, Bacterial Biotransformation included
compound | reported_metric | test_value
C[C@]12CCC(=O)C=C1CC[C@@H]1[C@@H]2C(=O)C[C@@]2(C)[C@H]1CC[C@]2(O)C(=O)CO | Bacterial Biotransformation | Compound NOT metabolized
CCCC1O[C@@H]2C[C@H]3[C@@H]4CCC5=CC(=O)C=C[C@]5(C)[C@H]4[C@@H](O)C[C@]3(C)[C@]2(C(=O)CO)O1 (some centres not stated) [BUDESONIDE] | Bacterial Biotransformation | Compound NOT metabolized
C[C@]12C=CC(=O)C=C1CC[C@@H]1[C@@H]2C(=O)C[C@@]2(C)[C@H]1CC[C@]2(O)C(=O)CO | Bacterial Biotransformation | Compound NOT metabolized
CNC(=C[N+](=O)[O-])NCCSCc1ccc(CN(C)C)o1 | Bacterial Biotransformation | Compound NOT metabolized
C[C@]12C=CC(=O)C=C1CC[C@@H]1[C@@H]2[C@@H](O)C[C@@]2(C)[C@H]1CC[C@]2(O)C(=O)CO | Bacterial Biotransformation | Compound NOT metabolized

Field Bacterial Biotransformation (entry "CCOc1nc2cccc(C(=O)O)c2n1Cc1ccc(-c2ccccc2-c2nnn[nH]2)cc1" ) reads Compound NOT metabolized

###

assay_name: The drug is tested on Parabacteroides distasonis strain: DSM20701 for biotransformation under anaerobic condition. The drug concentrations were measured over 6 timepoints collected between 0 and 12 hours of incubation by liquid-chromatography-coupled mass spectrometry (LC–MS)
Type: ADME
Parameters: dose 5 uM, timepoint 0, 1.5, 3, 6, 9, 12 hours
stated_conditions: 5 µM
reported_metric: Bacterial Biotransformation

// worked examples, Bacterial Biotransformation included
compound | reported_metric | test_value
CCOC(=O)C1=C(COCCN)NC(C)=C(C(=O)OC)C1c1ccccc1Cl (stereo unspecified) [AMLODIPINE] | Bacterial Biotransformation | Compound NOT metabolized
CO[C@H]1C[C@@H]2CC[C@@H](C)[C@@](O)(O2)C(=O)C(=O)N2CCCC[C@H]2C(=O)O[C@H]([C@H](C)C[C@@H]2CC[C@@H](O)[C@H](OC)C2)CC(=O)[C@H](C)/C=C(\C)[C@@H](O)[C@@H](OC)C(=O)[C@H](C)C[C@H](C)/C=C/C=C/C=C/1C [SIROLIMUS] | Bacterial Biotransformation | Compound metabolized
CCCC1O[C@@H]2C[C@H]3[C@@H]4CCC5=CC(=O)C=C[C@]5(C)[C@H]4[C@@H](O)C[C@]3(C)[C@]2(C(=O)CO)O1 (stereo partly specified) [BUDESONIDE] | Bacterial Biotransformation | Compound NOT metabolized
C[C@H]1C[C@H]2[C@@H]3CCC4=CC(=O)C=C[C@]4(C)[C@@]3(F)[C@@H](O)C[C@]2(C)[C@@]1(O)C(=O)CO [BETAMETHASONE] | Bacterial Biotransformation | Compound NOT metabolized
COc1ccc([C@@H]2Sc3ccccc3N(CCN(C)C)C(=O)[C@@H]2OC(C)=O)cc1 [DILTIAZEM] | Bacterial Biotransformation | Compound metabolized

Field Bacterial Biotransformation (entry Cn1cnc([N+](=O)[O-])c1Sc1ncnc2nc[nH]c12 [AZATHIOPRINE] ) reads Compound metabolized
